What inhibition was measured for each of the following?
assay: NOD1 signaling inhibitors, primary screen, cell-based, luminescence, uHTS (AID 1578); details: NOD1-driven NF-kB luciferase reporter cells, at 4 µM, active compounds read high;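 also: HEK-293T reporter cells stimulated with the NOD1 agonist gamma-tri-DAP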
Among all 290,000 compounds or so, about 3,000 (1%) were called active. The list comes from a sample in which actives are over-represented; it also holds close analogues and randomly drawn compounds.
Entry rule: numbers only, all in %.

Recorded result, Cc1ccc2[nH]c3c(N4CCN(Cc5ccc6c(c5)OCO6)CC4)ncnc3c2c1 , inhibition: 73.7

Recorded result, COc1cccc2[nH]c3c(N4CCN(Cc5ccc6c(c5)OCO6)CC4)ncnc3c12 , inhibition: 60.8

Recorded result, COc1ccc2c(c1)[nH]c1c(N3CCN(Cc4ccc5c(c4)OCO5)CC3)ncnc12 , inhibition: 86
